- System: MS2 coat protein
- Test details: apparent KD of MS2 coat protein; designed switch direction (-1 OFF switch, 1 ON switch): -1; higher = weaker reporter binding
- Run conditions: Eterna round: R95; input ligand: microRNA oligo, concentration not stated
Attribute measured: apparent KD of MS2 coat protein (µM)

CUCAUGUGAGGAUAUGUGAUCAACCUUCUGUAUAGAUGAUUACAGAAGGCACAUGAGGAUCACCCAUGUAGAUC [Ex4 - 3 - 22] (puzzle: Exclusion 4) :: 0.0916
CUAGAUCUUCGGAUCUAGUACAUGAGGAUCACCCAUGUUACGAGCUGAUUUUCAUACAAGCUUUUUGCUCGUCUUAU [Sensor v3 - Turn-off variant 1 - 29] (puzzle: Sensor v3, turn-off variant 1) :: 0.297
UCUAAACAUGAGGAUCACCCAUGUGAGGAUAUGAUGCAGCAGUGGUCUACGCUGUGCAUCAGAAGGCGCAUGUG (puzzle: Exclusion 1) :: 0.0722
CCGCAAAUGCAGGAUAUCGUAUCGGAAACGAUACGAGAAGGGUAAACAUGAGGAUCACCCAUGUUCCUUAACGG [Mat - Exclusion 6 - Eli Mod - D98] (puzzle: Exclusion 6) :: 0.0163
GCUAAGAGUGUGAGGAUAUGCUGGUCCUUGGAUCAGCAGAAGGCACAUGAGGAUCACCCAUGUGAAAACUUAGC [Mat - Exclusion 4 - JL Mod - D64] (puzzle: Brourd's mod of Exclusion 4) :: 0.0199

---

- Test system: MS2 coat protein
- Test details: apparent KD of MS2 coat protein, switch OFF state (with FMN for OFF switches, without FMN for ON switches); designed switch direction (-1 OFF switch, 1 ON switch): -1; higher = weaker reporter binding
- Run conditions: FMN input: 0 or 200 uM; Eterna round: R93 (includes R88 designs)
Measured apparent KD of MS2 coat protein, listed per entry.
Attribute measured: apparent KD of MS2 coat protein

UAAAGACAUGAGGAUCACCCAUGUGAGGAUAUAGGUGUAUGCAAAAAAAAGUUAAAAACUAGAAGGCACAGAAA [JR_Exc001_Sub305] :: 42.5 nM
CUCAAGUGAGGAUAUACGAAUAGUAAGUAAGUAUAACAGACGUAGAAGGCACAUGAGGAUCACCCAUGUAAAUA [JR_Exc004_Sub303] :: 28 nM
AAAACACAUGAGGAUCACCCAUGUGAGGAUAUGCAUAAAAAAAAAAAAAAAAAAAAAUGCAGAAGGCACAUAAA [jn_camden] :: 41.3 nM
GAAAAGCAAGGAUAUACAUGAGGAUCACCCAUGUGGAAUGGCGUGACCGAAAGAAAAGGUAGAAGGUGCACGUG [Ragetia] :: 286 nM

---

- Test system: K4 kissing-loop RNA reporter;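 further: bound reporter read as fluorescence of individual clusters on recovered sequencing chips by microscopy, with normalized cluster intensities fitted with a binding model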
- Test details: apparent KD of K4 kissing-loop reporter; higher = weaker reporter binding
- Run conditions: Eterna round: R107; input ligand: arginine 13.2 mM
Attribute measured: apparent KD of K4 kissing-loop reporter (nM)

CCCAAGGGCCUACCGGUAUUAUUAACGGAUACCAGAGGCGAAAGCCUCCCUUGGCAGCCGGGUGUAGUGAUGUUACUCCGGUAGU :: 64.7
GUGGUACAGGCGGCCGCCACUAGUGAUGUUAGUGAUAGAAGAUAUAGUAAAUAUCGGCAUUUAGAUAGGACCGGGCCUGGUGGUG [xxfxcmullin] :: 245
UGAUACCAGACUGAUACCAGCCAGUGAUGUUGGCAAUAACCAAGGCGAGUCAAAGACUCGGGCCCUUGGCAGCAGUCUGGUAUCU [TheoBX 6 #SwitchBubble #StaticStem] :: 150
CGCCGGAAGGCGAGCGCUCCCACUCCGGAAGGAGCGCCCGGAAGGGCAGGUAGGUCGCCGGAGUGAUGUUCCGGUGGAGGGCUCG [#2 Exclusion - Arginine A Attempt #11 (Inspired by Omei)] :: 58
AGGCACGAGCAAGGAUAUCGAGUAGAGUGAUGUUCUGCCUGGGUUGGCUCGGAAGGGCCUUCCCAGCGAGAAGGUGCUCGUGCCU [#2 Same State - FMN A Attempt #16 (HarryS)] :: 637
ACAGUUGCUAGUGAUACCAGACUAGCACUACGUAGUAUGUCAAGUGAUGUUUGACAACUAGUCCCUUGGCAGCGCGAUACGACUG [#12 K4 Theophylline B Same State] :: 152
GCCGUAGAUUGAAGGAGCGGUUCAUCAAUUCAAGUCGAGUGAUGUUCGACGAUUCUCAGUAACCAGGUAGGUCGCAAUCUACGGC :: 142
GGGUAUUACGGAGGAUAUGCACUGAGGAGGAGAAUAUAGUGAUGUUAUAUAAGAGGAAGGAGAAGAGUAGAAGGCCGUGGUAUUG [SSFMNB.H] :: 217
AGUAGUUGGGCGGCCGCCACUGGAACAGCUUUGUCAAAGACAGAGCACUAGAGUGAUGUUCUAGCUAGGACCGGGUCCAACUACA [whbob_SS_Tryp_B_t17] :: 206
AAUAAGGUCGCCGAUACCAGCGCAGGCAGAGCAAAGCUCUGCCUAGUAGUGAUGUUACUGCGCCCUUGGCAGCGGUGGCACGACC [Omei KL Theo B SS C v4] :: 824
CAUAGGAAACUAUGUAUCUCUCUUACUGAAGGAGCGCGUGAAAACGCAGGUAGGUCGCAGAAUUUAAAAGAGAGUGAUGUUCUCU [Ex Arginine A K4 8] :: 253
UUGUAUACUUUUGUGUGCGAUGUGUAGCCGCGAGGACCGGUACGGCCGCCACUCGCUGAGAGUGAUGUUCUCUGGGCUAUAUAUC [Skye_SS_TA3] :: 924
ACGAUUUACAGAAGGAGCGUGUAUUUAACUACAAUUAUCAUAGCGAGUGAUGUUCGUUAUACACAGGUAGGUCGCUGUAUAUCGA [JR_ExcArginiB_Sub012] :: 367
UGGAGUUGACGAAAAGUCAACUCCUGAGAAGGAGCGCACGAAAGUGCAGGUAGGUCGCUCUACCAGUGAUGUUGGUACUUAAUAA [#OpenEnded 6] :: 170
UUAACCAACAGCGAUACCAGCGUGGAGUGAUGUUCCGAGGAUCGGAGUGAUGUUCCGAAGCGCCCUUGGCAGCGCAGAAGCGCAA [Exclusion Theophylline B GF8] :: 148
UGAUAGGACAGAAGGAGCGGGAGUGAUGUUCCCAAAAGGAUAAGGUGUCAAAAGACACCCUCCCAGGUAGGUCGCUGUCCUAUCU :: 311
AGUACAAUGGCGGCCGCCACUCAACGCAGAUCAAAGAUCUGCGAUCACUCAGUGAUGUUGAGUGAGAGGACCGGGCCUUUGUACA [Omei KL Tryp B SS B v6] :: 272
AAGCAGUCACUCGAAAUCAUCAAAGAUGAACGAGGACCGGUACGGCCGCCACUCGGAGUGAUGUUCCGAAGACUGCAAAAUAAAA [MatMod 2 - Jieux - Exclusion - Tryptophan A] :: 225
UUGGACCUUAGCCUCAAUAGAACUUUGUUACGAGGACCGGUACGGCCGCCACUCGUCGGGCUCCGAUAGCCAGUGAUGUUGGCAA [theeternabot_sameState_KL_Trp_A_16] :: 405
AGACUUCACCGAAGGAGCGACGUAGCCUAGUGAUGUUAGGCAAGAGAGAAAUCUCUUAUACGUCAGGUAGGUCGCGGUGAAGUCA [Omei KL Arginine B SS C v2] :: 118
AUUUAAUGUAUAGAUUAUAUACAUAAUUCAGAGGAUAUGCGAAGAAGCAGAAGGCUGGUUGCAGUGAUGUUGCUUUUAUAAUUUA [JR_SSFMNA_Sub009] :: 152
CCGCCAUCAUCAGAUACCAGACUGAUGGCGGUAACCGCCAAGCGAGUGAUGUUCGCAUCAGUCCCUUGGCAGCUGAUGAAGACUG [Theo B SS t4] :: 82.4
GGCAGUGAUGUUGCCUUCGCAAUGCAUGCAGAGGAUAUUCGUUUGGGAAGAAGGCUGCAGCGUUCUCUCGAGUGAUGUUCGGGUG [Same State FMN A GF 19] :: 168

---

Measured apparent KD of MS2 coat protein, listed per entry.
- System: MS2 coat protein
- Test details: apparent KD of MS2 coat protein; designed switch direction (-1 OFF switch, 1 ON switch): 1; higher = weaker reporter binding
- Run conditions: input ligand: microRNA oligo, concentration not stated
Attribute measured: apparent KD of MS2 coat protein (nM)

AAAAGCGACGUAGGAUAUCCUCUACAUGCGUAAGGAGAAGGAUGCGCAACAUGAGGAUCACCCAUGUAAAACCAGCACUACUGG [Zalaendi] (Eterna round: R96, puzzle: Same State NG 1) :: 32.6
GUAGCAUACCGAGGAUAUUCAUUAAACAUGAGGAUCACCCAUGUAAAUUAUAGGCGAAAGCCUUGGGAGAAGGCGGAAUGCUAC [Xeonanis - 20 Mod72] (Eterna round: R96, puzzle: Same State NG 2) :: 11.3
GAGUGGUGGAGAGGAUAUACAUUGAUAAUCACUGUAGAAGGUUCUAACAUGAGGAUCACCCAUGUAGGACUAUUCCUGAGAGUU [Parity 53 - Jieux - Same State NG 1] (Eterna round: R96, puzzle: Same State NG 1) :: 9.89
UGUACCUUCACAGGAUAUCAUGCGAAAAUUGCGUGAGAAGGGUGAAUACGGUGUUAAUAAAAGCACAUGAGGAUCACCCAUGUA [SameState NG1 #56] (Eterna round: R96, puzzle: Same State NG 1) :: 246

Data provenance is the supplement of paper PMC9170038.
